# ASSAYED_SYSTEM: KLK1 (Homo sapiens, UniProt P06870)
# Sequence (P06870 25-262, species assumed): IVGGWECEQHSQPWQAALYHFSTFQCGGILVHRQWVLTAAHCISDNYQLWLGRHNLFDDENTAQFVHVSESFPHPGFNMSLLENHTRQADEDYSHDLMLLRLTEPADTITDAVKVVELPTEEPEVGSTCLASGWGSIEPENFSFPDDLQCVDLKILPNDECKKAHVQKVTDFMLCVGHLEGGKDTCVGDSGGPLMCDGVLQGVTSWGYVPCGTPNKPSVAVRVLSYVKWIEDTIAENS
# PROCEDURE_DETAILS: in vitro serine protease inhibition profile: KLK1
# Format: biochemical
# COND: read-out: IC50 KLK1
pIC50: −log10 of the molar value.
PROPERTY: pIC50

1) N=C(N)c1ccc2cc(OC(=O)c3ccc(N=C(N)N)cc3)ccc2c1 | ~6.00

* * *

# ASSAYED_SYSTEM: KLK4 (Homo sapiens)
# Sequence (Q9Y5K2 31-254, species assumed): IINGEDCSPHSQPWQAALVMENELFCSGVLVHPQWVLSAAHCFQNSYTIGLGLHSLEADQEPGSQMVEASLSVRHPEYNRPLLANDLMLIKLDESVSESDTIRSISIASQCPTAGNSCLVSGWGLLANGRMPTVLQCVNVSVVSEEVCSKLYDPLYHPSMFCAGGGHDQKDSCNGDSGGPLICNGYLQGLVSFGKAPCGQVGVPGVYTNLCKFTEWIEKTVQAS
# PROCEDURE_DETAILS: in vitro serine protease inhibition profile: KLK4
# Type: biochemical
pIC50: −log10 of the molar value.
Here the recorded pIC50 is given for each entry.
PROPERTY: pIC50

1. COC(=O)NC(Cc1ccc(NC(=N)N)cc1)P(=O)(Oc1ccc(NC(C)=O)cc1)Oc1ccc(NC(C)=O)cc1 (stereo not drawn) [Compound 2] | 7.59
2. COC(=O)NC(Cc1ccc(NC(=N)N)cc1)P(=O)(Oc1ccccc1)Oc1ccccc1 (stereo not drawn) [Compound 1] | 8.05
3. CC(=O)Nc1ccc(OP(=O)(Oc2ccc(NC(C)=O)cc2)C(Cc2ccc(NC(=N)N)cc2)NC(=O)OCc2ccccc2)cc1 (stereo not drawn) [Compound 4] | 8.70
